experiment: Cmax in Sprague-Dawley rat at 5 mg/kg, po administered via gavage by HPLC-MS analysis; assay type: ADME, organism-based; set-up: route oral, dose 5 mg/kg; conditions: in vivo
recorded metric: Cmax (nM)

molecule	units label	test value
CCCC[C@](C)(CO)Nc1nc(N)nc2cc(F)cnc12 [SELGANTOLIMOD]	nM	517

----------
test: AUC (infinity) in Beagle dog at 0.5 mg/kg, po administered via gavage by HPLC-MS analysis; format: ADME, organism-based, Canis lupus familiaris; set-up: route oral, time infinity, dose 0.5 mg/kg; settings: in vivo
recorded metric: AUC(0-inf) (µM·h)

compound	recorded metric	test value
CCCC[C@](C)(CO)Nc1nc(N)nc2cc(F)cnc12 [SELGANTOLIMOD]	AUC(0-inf)	0.0118
